- experimentDescription: ADME solubility determination at pH 2.0 and pH 7.4
- Assay type: physicochemical
- appliedConditions: aqueous buffer, thermodynamic from solid; PBS pH 2.0, shaken at 25° C. for 24 hours, LC-MS/MS; read-out: Solubility at pH 2.0
Listed compounds paired with reported solubility at 24 h

Please review the following examples before continuing.
| compound | solubility at 24 h |
| --- | --- |
| COCCOc1cc(C(F)(F)F)nn1-c1ccc(Cn2ncc3cnc(-c4c(OC)ncnc4C4CC4)nc32)cc1 | < 10 µM |
| CNc1cc(C(F)(F)F)nn1-c1ccc(Cn2ncc3cnc(-c4c(OC)ncnc4C4CC4)nc32)cc1 | < 10 µM |
| CCn1cc(C(F)(F)F)nc1-c1ccc([C@H](C)n2ncc3cnc(-c4c(OC)ncnc4OC)nc32)cc1 | > 10 µM |
| COc1ncnc(C)c1-c1ncc2cnn(Cc3ccc(-n4nc(C(F)(F)F)cc4C)cc3)c2n1 | > 10 µM |
| CCn1c(-c2ccc(Cn3ncc4cnc(-c5c(OC)ncnc5C5CC5)nc43)cc2)nc(C(F)(F)F)c1C | > 10 µM |

Param item = `[2H]C([2H])([2H])C([2H])([2H])n1cc(C(F)(F)F)nc1-c1ccc(Cn2ncc3cnc(-c4c(OC)ncnc4C4CC4)nc32)cc1` ; retrieve measured solubility at 24 h. > 10 µM

Param item = COc1ncnc(C2CC2(C)C)c1-c1ncc2cnn(Cc3ccc(-c4nc(C(F)(F)F)cn4C(C)C)cc3)c2n1 (stereo not shown) ; retrieve measured solubility at 24 h. > 10 µM
